For each of the binders below, state its peptide exchange yield.
- MEASUREMENT TARGET: T1, HLA-A*02:01 (human)
- T1 construct: monomers captured on streptavidin plates; also called MHC class I
- ASSAY EXPLANATION: UV peptide exchange ELISA

(Q) Name the recorded peptide exchange yield of the item ELAERVPAI in your answer.
(A) 20 to 50%

(Q) Output peptide exchange yield of YLLETSGNL
(A) 50 to 75%

(Q) Note peptide exchange yield for the binder shown: VIWKALIHL
(A) 50 to 75%

(Q) Specify reported peptide exchange yield for the binder shown: SLLEDKGLAEV
(A) 20 to 50%
